Biological target: human DHODH (Homo sapiens, UniProt Q02127)
Sequence (Q02127 whole entry): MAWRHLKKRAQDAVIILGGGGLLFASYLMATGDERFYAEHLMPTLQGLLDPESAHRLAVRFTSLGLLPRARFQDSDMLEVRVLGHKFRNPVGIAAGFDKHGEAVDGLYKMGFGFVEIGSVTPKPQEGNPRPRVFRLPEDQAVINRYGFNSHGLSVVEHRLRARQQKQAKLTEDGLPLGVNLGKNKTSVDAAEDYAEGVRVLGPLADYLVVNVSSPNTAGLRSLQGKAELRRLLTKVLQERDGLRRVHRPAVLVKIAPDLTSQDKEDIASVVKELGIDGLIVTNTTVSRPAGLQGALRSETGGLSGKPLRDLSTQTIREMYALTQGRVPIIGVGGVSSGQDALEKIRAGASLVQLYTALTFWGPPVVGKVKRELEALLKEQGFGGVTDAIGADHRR
Assay: DHODH Enzymatic Assay
Conditions: purified human DHODH; DCIP absorbance, end-point mode
Protocol: To detect DHODH enzyme activities, dichloroindophenol (DCIP) is added as the final electron acceptor in the assay. DCIP can accept electrons from the reduced coenzyme Q generated in the assay, or from dihydroorotate (DHO) via FMN by binding presumably to the ubiquinone pocket. […] The assay buffer contained […], pH 7.5, 150 mM NaCl, 0.5 mM EDTA, and 0.1% Triton X-100 in MilliQ water. […] Absorbance measurements were obtained using the BMG Phera Star plate-reading spectrophotomer. […]
pEC50: −log10 of the molar value.
measurement.type: pEC50

[
  {
    "smiles.record": "CCn1c(CO)nn(-c2nc(O[C@@H](C)C(F)(F)F)c(C(=O)Nc3cc(Cl)cnc3OC)cc2F)c1=O",
    "observed.measurement": 7.28
  },
  {
    "smiles.record": "CCn1c(CO)nn(-c2nc(O[C@@H](C)C(F)(F)F)c(C(=O)Nc3c(Cl)ccnc3Cl)cc2F)c1=O",
    "observed.measurement": 9.21
  },
  {
    "smiles.record": "CCn1c(CO)nn(-c2nc(O[C@@H](C)C(F)(F)F)c(C(=O)Nc3c(C)ccnc3OC)cc2F)c1=O",
    "observed.measurement": 9.06
  },
  {
    "smiles.record": "CCn1c(CO)nn(-c2nc(O[C@@H](C)C(F)(F)F)c(C(=O)Nc3c(C(F)F)n[nH]c3C)cc2F)c1=O",
    "observed.measurement": 8.48
  },
  {
    "smiles.record": "CCn1c(CO)nn(-c2nc(O[C@@H](C)C(F)(F)F)c(C(=O)Nc3cc(OC)ncc3F)cc2F)c1=O",
    "observed.measurement": 6.69
  }
]

I. CCn1c(CO)nn(-c2nc(O[C@@H](C)C(F)(F)F)c(C(=O)Nc3c(C)noc3C)cc2F)c1=O
II. CCn1c(CO)nn(-c2nc(OC(C)C)c(C(=O)Nc3c(F)cccc3Cl)cc2F)c1=O
(Q) Of the pair I and II , name the member with the lesser recorded pEC50. Reply briefly: the label of your chosen item.
(A) I

====

tested on: MOLM-13 cells; assay: MOLM-13 Cellular Assay; type: cell-based; settings: Homo sapiens, 72 hours exposure, cell viability by CellTiter-Glo
measurement.type: EC50 (nM)

[
  {
    "molecule": "CCn1c(CO)nn(-c2nc(O[C@@H](C)C(F)(F)F)c(C(=O)Nc3cc(OC)ncc3C)cc2F)c1=O [Example 66]",
    "system": "MOLM-13 cells",
    "EC50, nM": 19.9
  },
  {
    "molecule": "CCn1c(CO)nn(-c2nc(O[C@@H](C)C(F)(F)F)c(C(=O)Nc3c[nH]nc3C)cc2F)c1=O [Example 57]",
    "system": "MOLM-13 cells",
    "EC50, nM": 20.2
  },
  {
    "molecule": "Cc1ccnc(Cl)c1NC(=O)c1cc(F)c(-n2nc(CF)n(CCCO)c2=O)nc1O[C@@H](C)C(F)(F)F [Example 101]",
    "system": "MOLM-13 cells",
    "EC50, nM": 19.4
  }
]

====

target: human DHODH (Homo sapiens); test: DHODH Enzymatic Assay; details: purified human DHODH; DCIP absorbance, end-point mode
measurement.type: EC50 (nM)

A. CCn1c(CO)nn(-c2nc(O[C@@H](C)C(F)(F)F)c(C(=O)Nc3cc(C(C)C)nn3C)cc2F)c1=O
B. CCn1c(CO)nn(-c2nc(O[C@@H](C)C(F)(F)F)c(C(=O)Nc3ccnc(OC)c3Cl)cc2F)c1=O
C. CCn1c(CO)nn(-c2nc(O[C@@H](C)C(F)(F)F)c(C(=O)Nc3c(F)cnc(OC)c3C#N)cc2F)c1=O
(Q) Highest to lowest EC50: rank the entries shown above. // ordering of labels required in reply
(A) A, B, C
